Reported pKd by item:
# targetOrTestSystem: T1, recombinant cynomolgus monkey PD-L1 with a C-terminal myc-myc-hexahistidine tag (cynomolgus monkey (Macaca fascicularis))
# T1 construct: also called MfPD-L1-MMH; MfPD-L1-MMH Monomer
# T1 sequence (chain, as listed by the source limits assumed): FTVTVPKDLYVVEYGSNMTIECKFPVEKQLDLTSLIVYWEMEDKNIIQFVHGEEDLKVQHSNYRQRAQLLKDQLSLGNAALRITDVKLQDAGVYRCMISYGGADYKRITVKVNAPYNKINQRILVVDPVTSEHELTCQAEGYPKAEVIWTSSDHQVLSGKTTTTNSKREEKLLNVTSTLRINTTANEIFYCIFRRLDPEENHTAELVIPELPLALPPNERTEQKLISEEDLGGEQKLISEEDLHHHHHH
# assaySummary: SPR (Biacore), mAb captured, 25C
// pKd here means minus log10 of the molar concentration (mol/L)

Task: Please give the documented pKd of H2aM8317N (antibody, mouse IgG2, V domains shown, also called H2M8317N) VH: EVQLVESGGGLVQPGGSLRLSCAASGFTVGSNYMNWVRQAPGKGLEWVSVIYSGGSTYYADSVKGRFTISRLTSKNTLYLQMSSLRPEDTAVYYCARGIRGLDVWGQGTTVTVSS VL: DIQMTQSPSSLSASVGDRVTITCRASQTINIYLNWYQQKPGRAPRLLIYAASSLQSGVPSRFSGSGSGTDFTLTISSLQPEDFATYYCHQSYSTPPITFGQGTRLEIK
Result: 6.65

Task: Please give the documented pKd of H2aM8323N (antibody, mouse IgG2, V domains shown, also called H2M8323N) VH: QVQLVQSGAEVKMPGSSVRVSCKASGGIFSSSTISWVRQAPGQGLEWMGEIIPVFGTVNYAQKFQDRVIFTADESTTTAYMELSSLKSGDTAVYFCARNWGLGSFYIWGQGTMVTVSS VL: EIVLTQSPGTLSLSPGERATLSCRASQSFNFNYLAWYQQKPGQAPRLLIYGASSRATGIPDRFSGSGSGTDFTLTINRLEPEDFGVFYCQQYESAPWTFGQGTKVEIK
Result: 7.80

meta.source: patent US20210380702A1
